Experiment: Inhibition of Cyanidioschyzon merolae ABCB1 ATPase activity assessed as inhibition constant by colorimetric analysis
measure: Ki (µM)

Please review the entries below; each comes with its answer.
[[record]]
molecule_smiles = "O=C(OCc1cccc([N+](=O)[O-])c1)c1ccccc1C1=c2cc3c(cc2Oc2cc4c(cc21)CCCN4)=NCCC3"
experimental_result = 12

[[record]]
molecule_smiles = "COc1cccc(COC(=O)c2ccccc2C2=c3cc4c(cc3Oc3cc5c(cc32)CCCN5)=NCCC4)c1"
experimental_result = 8.2


(a) CN(C)c1cccc(COC(=O)c2ccccc2C2=c3cc4c(cc3Oc3cc5c(cc32)CCCN5)=NCCC4)c1
(b) COc1cccc(OC)c1COC(=O)c1ccccc1C1=c2cc3c(cc2Oc2cc4c(cc21)CCCN4)=NCCC3
Two entries are listed, a and b . Which one carries the higher Ki? Choose, then provide that item's label.
a
(a: 10 µM, b: 5.8 µM)
